# experiment: Log D value at pH 7.4
# Type: physicochemical
# experimental-parameters: buffer
experimental-endpoint: logD
# answer = number (no unit)

Q: For the compound shown here, `COc1cc2ncnc(Nc3cc(NC(=O)c4ccnc(N5CCOCC5)c4)ccc3C)c2cc1OCCN(C(C)C)C(C)C` , give the reported logD.
A: 3.5

----------
# experiment: Clearance after oral dosing at 1 mg/kg
# Type: ADME, organism-based
# Design: dose 1 mg/kg, route oral
# experimental-parameters: rat, in vivo, read-out: Clearance
experimental-endpoint: CL/F

Q: For the molecule shown here, `CSc1nccc(Nc2cc(NC(=O)c3cc(F)cc(N4CCOCC4)c3)ccc2C)n1` , give the reported CL/F.
A: 25 mL/min/kg
